# test.system: PDE10A2 (Homo sapiens, UniProt Q9Y233)
# Sequence (Q9Y233 267-1055, species assumed): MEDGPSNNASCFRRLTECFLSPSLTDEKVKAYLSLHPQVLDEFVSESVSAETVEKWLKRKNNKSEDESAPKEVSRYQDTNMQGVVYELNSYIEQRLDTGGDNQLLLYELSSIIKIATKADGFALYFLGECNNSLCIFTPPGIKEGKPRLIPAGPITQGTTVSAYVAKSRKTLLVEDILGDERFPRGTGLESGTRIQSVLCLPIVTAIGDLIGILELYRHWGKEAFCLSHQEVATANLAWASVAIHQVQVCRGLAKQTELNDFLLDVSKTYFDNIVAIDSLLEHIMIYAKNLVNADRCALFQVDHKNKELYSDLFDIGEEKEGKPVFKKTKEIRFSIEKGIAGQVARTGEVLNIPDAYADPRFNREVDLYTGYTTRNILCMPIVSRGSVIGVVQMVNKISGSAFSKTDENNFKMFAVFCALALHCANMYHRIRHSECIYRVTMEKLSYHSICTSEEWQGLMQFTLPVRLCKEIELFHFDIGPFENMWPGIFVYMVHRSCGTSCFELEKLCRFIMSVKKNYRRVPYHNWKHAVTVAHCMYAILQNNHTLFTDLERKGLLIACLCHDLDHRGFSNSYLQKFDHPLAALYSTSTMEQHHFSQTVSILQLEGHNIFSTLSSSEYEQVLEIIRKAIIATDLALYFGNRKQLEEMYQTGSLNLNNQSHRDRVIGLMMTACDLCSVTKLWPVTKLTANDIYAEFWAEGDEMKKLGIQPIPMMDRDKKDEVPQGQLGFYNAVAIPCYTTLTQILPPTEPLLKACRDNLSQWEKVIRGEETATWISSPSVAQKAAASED
measurement.type: pIC50
Please treat pIC50 as minus the base-10 logarithm of the molar concentration.

get_value(item= C=C(C)Cn1c(SCC(=O)c2cccs2)nc2sc3c(c2c1=O)CCCC3 [eggmanone] , readout=pIC50) returns 5.52

###

# test.system: PDE11A4 (Homo sapiens)
# Sequence (Q9HCR9 whole entry, species assumed): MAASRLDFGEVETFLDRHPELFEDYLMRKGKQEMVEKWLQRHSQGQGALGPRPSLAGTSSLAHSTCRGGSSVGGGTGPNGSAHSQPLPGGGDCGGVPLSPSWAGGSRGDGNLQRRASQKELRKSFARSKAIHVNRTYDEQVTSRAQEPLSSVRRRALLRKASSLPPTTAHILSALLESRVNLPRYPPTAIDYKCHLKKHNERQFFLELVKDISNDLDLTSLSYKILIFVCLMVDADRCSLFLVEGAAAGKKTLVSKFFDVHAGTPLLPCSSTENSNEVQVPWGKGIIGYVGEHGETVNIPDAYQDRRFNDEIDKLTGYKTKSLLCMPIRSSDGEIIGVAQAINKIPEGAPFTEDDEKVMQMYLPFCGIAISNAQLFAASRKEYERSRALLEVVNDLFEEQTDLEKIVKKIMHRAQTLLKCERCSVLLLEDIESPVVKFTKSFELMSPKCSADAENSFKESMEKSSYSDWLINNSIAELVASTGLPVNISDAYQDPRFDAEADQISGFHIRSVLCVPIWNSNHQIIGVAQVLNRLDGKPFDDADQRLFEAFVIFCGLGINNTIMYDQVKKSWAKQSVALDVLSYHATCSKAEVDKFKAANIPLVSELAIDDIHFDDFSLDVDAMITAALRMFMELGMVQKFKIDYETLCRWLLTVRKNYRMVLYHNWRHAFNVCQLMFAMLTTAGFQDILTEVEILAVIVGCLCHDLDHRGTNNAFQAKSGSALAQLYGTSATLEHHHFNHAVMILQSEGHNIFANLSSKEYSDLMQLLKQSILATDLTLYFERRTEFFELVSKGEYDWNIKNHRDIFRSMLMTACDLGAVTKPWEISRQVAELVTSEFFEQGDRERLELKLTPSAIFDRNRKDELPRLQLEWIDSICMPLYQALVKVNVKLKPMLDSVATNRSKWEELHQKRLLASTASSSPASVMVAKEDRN
measurement.type: IC50
Respond with a number, then the unit of measure.

get_value(item= C=C(C)Cn1c(SCC(=O)c2cccs2)nc2sc3c(c2c1=O)CCCC3 [eggmanone] , readout=IC50) returns 4.08 µM

Entry source: paper PMC4394042
